test: protein stability index of a GFP-peptide fusion (GPS, HEK-293T) (PSI 1-6); higher = more stable;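 also: 24-mer peptide tiles fused after GFP, lentivirally expressed, FACS-sorted into six equal bins by GFP/DsRed ratio, decoded by Illumina sequencing, PSI is the read-weighted mean bin number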
measurement_conditions: treatment: DMSO; c terminus: a fixed tail appended
Reported protein stability index is given for each of the following sequences.
Just the number, please.

# annotated cases, reported protein stability index shown
chain_sequence | protein stability index
ERPLPNPEGLDSDFLAVLSDYPSP [SLA] | 4.26
EDPYMMGRIACANVLSDLYAMGIT [SEPHS2] | 2.39
LLCLFFGIPWEAGARQISYSIPEE [PCDHGA10] | 1.94

Reported protein stability index for QQKEEEEEMAVVPQGLFRGGKSGE [CHGA] : what is it?
5.52

Reported protein stability index for QNPAGELEGFQAQGHPPSLFPPKA [ATE1] : what is it?
4.66

Reported protein stability index for NISDLPFLAENSAFPKMALQAKQD [LCOR] : what is it?
4.42

Reported protein stability index for PPSALDQLSRLNITYPMLFKLTNK [UFD1] : what is it?
2.48

Source listed as the supplement of paper PMC10567573.
